Tested on: SK-BR-3
Conditions: 72 h
assay.metric: EC50, CellTiter-Glo (nM)

Some solved cases for reference:
compound: c1ccc2c(CCNc3ccc(Nc4ccncc4)cc3)c[nH]c2c1 [Serdemetan]
experimental.target: SK-BR-3
EC50, CellTiter-Glo [nM]: 2780
//
compound: CNC(=O)c1cccc(-c2ccc3c(N4CCOC[C@@H]4C)nc(N4CCOC[C@@H]4C)nc3n2)c1 [AZD2014]
experimental.target: SK-BR-3
EC50, CellTiter-Glo [nM]: 116

I = Cc1[nH]c2ccccc2c1CCNCc1ccc(/C=C/C(=O)NO)cc1 [Panobinostat]
II = COc1cc(OC2CCN(C)CC2)ccc1Nc1ncc2c(n1)n(C1CCCC1)c(=O)n2C [AZ 3146]
-- ask Sorting by EC50, CellTiter-Glo in descending order, would I or II appear first? Refer to your chosen entry by its label in the reply.
-- reply II
(II: 970 nM, I: 13.7 nM)
